test system: ragweed (common ragweed, Ambrosia elatior); test: Test A greenhouse herbicide test, pre- and postemergence; assay type: in vivo; conditions: Preemergence, 500 g ai/ha; 0 to 100 scale, 0 no effect, 100 complete control
Each entry below carries its recorded Plant response rating, Ragweed.
Property measured: Plant response rating, Ragweed

• CCC(=O)Oc1c(C)nn(C)c(=O)c1-c1c(C)sc2ccc(C)cc12 [Compound 42] = 100
• CCc1ccc2ccccc2c1-c1c(OC(=O)OC(C)C)c(C)nn(C)c1=O [Compound 39] = 70
• Cc1nn(C)c(=O)c(-c2c(C)sc3ccccc23)c1O [Compound 65] = 80
• Cc1ccc2ccccc2c1-c1c(O)c(C)nn(C)c1=O [Compound 59] = 100
